System Tested: human 5-HT2C receptor (Homo sapiens, UniProt P28335, I156V/I160V/N158S)
Sequence (P28335 33-458 I156V/N158S/I160V limits assumed): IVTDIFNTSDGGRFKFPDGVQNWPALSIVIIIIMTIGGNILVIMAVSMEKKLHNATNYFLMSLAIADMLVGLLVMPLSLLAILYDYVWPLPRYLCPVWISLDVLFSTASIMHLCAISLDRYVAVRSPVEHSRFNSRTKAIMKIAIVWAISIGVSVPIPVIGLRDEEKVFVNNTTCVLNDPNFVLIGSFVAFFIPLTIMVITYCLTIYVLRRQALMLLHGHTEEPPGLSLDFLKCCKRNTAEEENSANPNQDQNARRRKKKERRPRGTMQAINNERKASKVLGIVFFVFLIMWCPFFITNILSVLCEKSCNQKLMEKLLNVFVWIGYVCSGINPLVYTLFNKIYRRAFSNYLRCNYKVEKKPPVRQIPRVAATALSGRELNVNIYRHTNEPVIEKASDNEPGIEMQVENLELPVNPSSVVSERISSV
Test Protocol: cell-based
Measurement Name: pEC50
Note: pEC50 values are expressed as the negative base-10 logarithm of concentration in M.

# get_value(readout='pEC50', item= CN1CC(NC(=O)C2CN(c3c4c(nc5ccnn35)CCNCC4)C2)C1 )
8.40

# get_value(readout='pEC50', item= CNC(=O)C1CN(c2c3c(nc4ccnn24)CCNCC3)C1 )
6.09

# get_value(readout='pEC50', item= CC#CCN(CC(C)C)C(=O)C1CN(c2c3c(nc4ccnn24)CCNCC3)C1 )
6.67

# get_value(readout='pEC50', item= CCc1ccc(CN(C)C(=O)C2CN(c3c4c(nc5ccnn35)CCNCC4)C2)cc1 )
7.19

# get_value(readout='pEC50', item= CC(C)(C)N1CCC2(CCN(C(=O)C3CN(c4c5c(nc6ccnn46)CCNCC5)C3)CC2)C1=O )
6.62

# get_value(readout='pEC50', item= O=C(C1CN(c2c3c(nc4ccnn24)CCNCC3)C1)N1CC[C@H]2CCCC[C@@H]2C1 )
7.24

# get_value(readout='pEC50', item= Brc1cccc(OC2CN(c3c4c(nc5ccnn35)CCNCC4)C2)c1 )
6.32

# get_value(readout='pEC50', item= CC(C)(C)CNC(=O)C1CN(c2c3c(nc4ccnn24)CCNCC3)C1 )
7.19

* * *

System Tested: human 5-HT2C receptor (Homo sapiens, UniProt P28335, I156V/I160V/N158S)
Test Protocol: cell-based
// NB: equality with 50 nM counts as not satisfied; only EC50 strictly below is satisfied

Please indicate whether the reported EC50 of Fc1c(Cl)cccc1OCC1CN(c2c3c(nc4ccnn24)CCNCC3)C1 is strictly below 50 nM.
not satisfied

Please indicate whether the reported EC50 of Cc1cnn2c(N3CC(C(=O)N4CCC(C(F)(F)F)CC4)C3)c3c(nc12)CCNCC3 is strictly below 50 nM.
satisfied

Please indicate whether the reported EC50 of CCOc1ccccc1OC1CN(c2c3c(nc4ccnn24)CCNCC3)C1 is strictly below 50 nM.
satisfied

Please indicate whether the reported EC50 of CC(C)CCN(C)C(=O)C1CN(c2c3c(nc4ccnn24)CCNCC3)C1 is strictly below 50 nM.
not satisfied

Please indicate whether the reported EC50 of COc1ccc2c(c1)CCN2C(=O)C1CN(c2c3c(nc4c(C)cnn24)CCNCC3)C1 is strictly below 50 nM.
satisfied

Please indicate whether the reported EC50 of CN(Cc1ccccc1Br)C(=O)C1CN(c2c3c(nc4ccnn24)CCNCC3)C1 is strictly below 50 nM.
not satisfied

Please indicate whether the reported EC50 of O=C(C1CN(c2c3c(nc4c(Br)cnn24)CCNCC3)C1)N1CCc2ccccc2C1 is strictly below 50 nM.
not satisfied

Please indicate whether the reported EC50 of CC(C)N1CCN(C(=O)C2CN(c3c4c(nc5ccnn35)CCNCC4)C2)CC1 is strictly below 50 nM.
satisfied

* * *

Assignment: determine reported log10 EC50 for the given molecules.
System Tested: human 5-HT2C receptor (Homo sapiens, UniProt P28335, I156V/I160V/N158S)
Test Protocol: cell-based
log10 EC50, nM

# get_value(readout='log10 EC50', item= C[C@@H]1CN(C(=O)C2CN(c3c4c(nc5ccnn35)CCNCC4)C2)C[C@H](C)O1 )
1.57

# get_value(readout='log10 EC50', item= Fc1cc(Cl)ccc1OC1CN(c2c3c(nc4ccnn24)CCNCC3)C1 )
1.91

# get_value(readout='log10 EC50', item= O=C(C1CN(c2c3c(nc4ccnn24)CCNCC3)C1)N1CCCC2CCCCC21 (centres unmarked) )
3.11

# get_value(readout='log10 EC50', item= CN(Cc1ccc(C#N)cc1)C(=O)C1CN(c2c3c(nc4ccnn24)CCNCC3)C1 )
1.15

# get_value(readout='log10 EC50', item= CN(Cc1ccn(C)n1)C(=O)C1CN(c2c3c(nc4ccnn24)CCNCC3)C1 )
2.03

# get_value(readout='log10 EC50', item= FC(F)(F)c1ccccc1OC1CN(c2c3c(nc4ccnn24)CCNCC3)C1 )
2.11

# get_value(readout='log10 EC50', item= Cc1ccc(OCC2CN(c3c4c(nc5ccnn35)CCNCC4)C2)cc1 )
2.15

# get_value(readout='log10 EC50', item= COCCN(C)C(=O)C1CN(c2c3c(nc4ccnn24)CCNCC3)C1 )
2.95

# get_value(readout='log10 EC50', item= O=C(C1CN(c2c3c(nc4ccnn24)CCNCC3)C1)N1CCC(c2ccc(Cl)cc2)CC1 )
1.74

# get_value(readout='log10 EC50', item= CN(C)C(=O)[C@H]1CCN(c2c3c(nc4ccnn24)CCNCC3)C1 )
3.43

# get_value(readout='log10 EC50', item= CN(CC1CC1)C(=O)C1CN(c2c3c(nc4ccnn24)CCNCC3)C1 )
2.19

# get_value(readout='log10 EC50', item= O=C(C1CN(c2c3c(nc4ccnn24)CCNCC3)C1)N1CCCCC1c1cccnc1 (centres unmarked) )
3.00

# get_value(readout='log10 EC50', item= c1cc2nc3c(c(N4CC(OCC5CCCCC5)C4)n2n1)CCNCC3 )
2.73

# get_value(readout='log10 EC50', item= CC1(N)CCN(C(=O)C2CN(c3c4c(nc5ccnn35)CCNCC4)C2)CC1 )
0.30

# get_value(readout='log10 EC50', item= c1nn2c(N3CCC3)c3c(nc2c1C1CC1)CCNCC3 )
1.91

# get_value(readout='log10 EC50', item= Cn1c(C2CN(c3c4c(nc5ccnn35)CCNCC4)C2)nc2ccccc21 )
1.72

# get_value(readout='log10 EC50', item= c1ccc(OCC2CN(c3c4c(nc5ccnn35)CCNCC4)C2)cc1 )
1.49

# get_value(readout='log10 EC50', item= c1cc2nc3c(c(C4CCC4)n2n1)CCNCC3 )
2.06

# get_value(readout='log10 EC50', item= FC1(F)CN(c2c3c(nc4ccnn24)CCNCC3)C1 )
3.38

# get_value(readout='log10 EC50', item= O=C(C1CN(c2c3c(nc4ccnn24)CCNCC3)C1)N1C[C@@H]2C[C@H]1CN2 )
0.78

# get_value(readout='log10 EC50', item= Cc1cnn2c(N3CCCCC3)c3c(nc12)CCNCC3 )
1.57

# get_value(readout='log10 EC50', item= Clc1ccccc1OC1CN(c2c3c(nc4ccnn24)CCNCC3)C1 )
1.99

# get_value(readout='log10 EC50', item= O=C(O)C1CN(c2c3c(nc4ccnn24)CCNCC3)C1 )
3.13

# get_value(readout='log10 EC50', item= Cc1ccc(OC2CN(c3c4c(nc5ccnn35)CCNCC4)C2)cc1 )
2.11

# get_value(readout='log10 EC50', item= Fc1cccc(OC2CN(c3c4c(nc5ccnn35)CCNCC4)C2)c1 )
1.41

# get_value(readout='log10 EC50', item= CN1CCc2nc3ccnn3c(N3CC(C(=O)N4CCN(C5CCCCC5)CC4)C3)c2CC1 )
1.99

# get_value(readout='log10 EC50', item= Cc1cccc(CN(C)C(=O)C2CN(c3c4c(nc5ccnn35)CCNCC4)C2)c1 )
1.71

# get_value(readout='log10 EC50', item= CN(C(=O)C1CN(c2c3c(nc4ccnn24)CCNCC3)C1)c1ccccc1 )
2.87

# get_value(readout='log10 EC50', item= CC1CN(C(=O)C2CN(c3c4c(nc5ccnn35)CCNCC4)C2)CC(C)N1 (centres unmarked) )
0.00

# get_value(readout='log10 EC50', item= O=C(C1CN(c2c3c(nc4ccnn24)CCNCC3)C1)N1CCc2cc(Cl)ccc21 )
1.89

# get_value(readout='log10 EC50', item= Fc1ccccc1OCC1CN(c2c3c(nc4ccnn24)CCNCC3)C1 )
0.48

# get_value(readout='log10 EC50', item= FC(F)(F)c1cccc(OC2CN(c3c4c(nc5ccnn35)CCNCC4)C2)c1 )
1.62

# get_value(readout='log10 EC50', item= NC1CCN(C(=O)C2CN(c3c4c(nc5ccnn35)CCNCC4)C2)C1 (centres unmarked) )
0.70

# get_value(readout='log10 EC50', item= O=C(C1CN(c2c3c(nc4ccnn24)CCNCC3)C1)N1CC[C@H](c2ccccc2)C1 )
1.65

# get_value(readout='log10 EC50', item= Cc1cnn2c(N3CC(C(=O)N4CCC(Oc5ccccc5)CC4)C3)c3c(nc12)CCNCC3 )
1.79

* * *

System Tested: human 5-HT2C receptor (Homo sapiens, UniProt P28335, I156V/I160V/N158S)
Test Protocol: cell-based
Measurement Name: EC50 (µM)
Please respond with the number in µM and leave the unit unwritten.

# get_value(readout='EC50', item= Fc1ccc(Cl)c(OCC2CN(c3c4c(nc5ccnn35)CCNCC4)C2)c1 )
0.002

# get_value(readout='EC50', item= Cc1ccc(OC2CN(c3c4c(nc5ccnn35)CCNCC4)C2)cn1 )
0.147

# get_value(readout='EC50', item= CN1CCCN(C(=O)C2CN(c3c4c(nc5ccnn35)CCNCC4)C2)CC1 )
0.002

# get_value(readout='EC50', item= O=C(C1CN(c2c3c(nc4ccnn24)CCNCC3)C1)N1CCc2cccc(C(F)(F)F)c2C1 )
0.033

# get_value(readout='EC50', item= CC1CNCCc2nc3ccnn3c(N3CCC3)c21 (centres unmarked) )
0.57

# get_value(readout='EC50', item= CC(C)(O)[C@@H]1CCCN1C(=O)C1CN(c2c3c(nc4ccnn24)CCNCC3)C1 )
2.56

# get_value(readout='EC50', item= O=C(C1CN(c2c3c(nc4ccnn24)CCNCC3)C1)N1CCC(c2cccc(F)c2)C1 (centres unmarked) )
0.011

# get_value(readout='EC50', item= COc1ccc(CC2CN(c3c4c(nc5ccnn35)CCNCC4)C2)cc1 )
0.119

# get_value(readout='EC50', item= CS(=O)(=O)N1CCN(C(=O)C2CN(c3c4c(nc5ccnn35)CCNCC4)C2)CC1 )
0.002

# get_value(readout='EC50', item= Cc1cnn2c(N3CC(C(=O)N4CCC5(CCCC5)C4)C3)c3c(nc12)CCNCC3 )
0.025

# get_value(readout='EC50', item= CN1CCC(CNC(=O)C2CN(c3c4c(nc5ccnn35)CCNCC4)C2)CC1 )
0.019

# get_value(readout='EC50', item= O=C(C1CN(c2c3c(nc4ccnn24)CCNCC3)C1)N1CCN(c2ccccc2)CC1 )
0.006

# get_value(readout='EC50', item= O=C(NCCN1CCCCC1)C1CN(c2c3c(nc4ccnn24)CCNCC3)C1 )
0.04

# get_value(readout='EC50', item= COc1cc(Cl)ccc1OCC1CN(c2c3c(nc4ccnn24)CCNCC3)C1 )
0.163

# get_value(readout='EC50', item= CCc1cnn2c(N3CCC3)c3c(nc12)CCNCC3 )
0.012

# get_value(readout='EC50', item= O=C(C1CN(c2c3c(nc4ccnn24)CCNCC3)C1)N1CCC(O)(c2cc(F)cc(F)c2)CC1 )
0.007

# get_value(readout='EC50', item= Fc1cc(Cl)ccc1OCC1CN(c2c3c(nc4ccnn24)CCNCC3)C1 )
0.009
